Assayed Target: NQO1 WT (NAD(P)H:quinone oxidoreductase 1) (Homo sapiens)
Construct: codon-optimised gene in pET28a, E. coli; FAD-containing homodimer
Test Description: NADH-menadione reductase assay, absorbance at […] nm
Attribute Measured: pIC50
Convention used: pIC50 is expressed as -log10 of the molar concentration.

Using the record for O=S(=O)(Nc1ccccc1Br)N1CCCC1 [BPPSA] , report its pIC50.
5.07

###

Assayed Target: NQO1 WT (NAD(P)H:quinone oxidoreductase 1) (Homo sapiens, UniProt P15559)
Construct: codon-optimised gene in pET28a, E. coli; FAD-containing homodimer
Sequence (P15559 whole entry): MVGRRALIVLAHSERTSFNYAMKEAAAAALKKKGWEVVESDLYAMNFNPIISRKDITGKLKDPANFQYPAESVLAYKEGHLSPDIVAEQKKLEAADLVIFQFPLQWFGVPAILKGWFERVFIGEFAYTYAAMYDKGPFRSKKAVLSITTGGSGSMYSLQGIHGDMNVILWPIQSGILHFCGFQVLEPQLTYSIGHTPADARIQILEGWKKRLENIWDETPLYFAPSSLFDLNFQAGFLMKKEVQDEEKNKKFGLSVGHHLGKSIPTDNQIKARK
Test Description: isothermal titration calorimetry
Assay type: binding
Setup Conditions: read-out: dissociation constant
Attribute Measured: pKd
Quick note: pKd values are minus log10 of concentrations in mol/L.

I'd like to know its pKd. The compound in question is O=S(=O)(Nc1ccccc1Br)N1CCCC1
5.10

Data provenance is paper PMC7027498.
